Below: a set of entries, each annotated with reported differential viability (reversal).
test: reversal of MRP1-mediated doxorubicin resistance, pilot screen, H69AR cells, doxorubicin co-treatment (AID 601); conditions: H69AR cells + 2 uM doxorubicin, CellTiter-Glo, 72 h; at 10 µM; stronger effect = higher value
Express the result in % but write the number alone.

Example cases with answers are listed next.
Cc1ccc(S(=O)(=O)Cc2ccc(C(=O)NCc3ccc4c(c3)OCO4)o2)cc1 ... 6.79
CC(C)c1cc(C(=O)NCc2ccco2)no1 ... 5.93
CCOc1ccccc1NC(=O)C1CCCN1C(=O)OCc1ccccc1 (stereo not given) ... 2.29
COc1ccc(-c2cc(C(F)(F)F)nc(SCC(=O)NCc3ccco3)n2)cc1OC ... -25.6

Would you kindly look at the next entry?
Record summary for Cn1cc(Br)c(C(=O)NC2CCCCC2)n1 : reported differential viability (reversal) = 3.45

====

Listing of recorded viability by entry.
assay: reversal of MRP1-mediated doxorubicin resistance, pilot screen, H69AR cells, doxorubicin co-treatment (AID 601); settings: H69AR cells, CellTiter-Glo, 72 h; compound alone cytotoxicity; at 10 µM
Give your result as the value with the unit written after it.

CCOC(=O)CN1CC23C=CC(O2)C(C(=O)Nc2ccc(OC)cc2OC)C3C1=O (stereo not drawn) ... 98.9%
CC12CN3CC(C)(CN(C1)C3c1cc(Br)ccc1O)C2=O (stereo not drawn) ... 100%
O=C(OCC(=O)c1c[nH]c2ccccc12)C1=COCCO1 ... 97.5%
COCCn1c(SCC(=O)Nc2cccc(OC)c2)nnc1-c1ccccc1 ... 103%

Reported viability of Cc1cccc(-c2cc3nc(C)cc(NCCCN(C)C)n3n2)c1 : 82.8%

Looking up COc1ccc(CCNC(=O)c2ccc(N3CCCC3=O)cc2)cc1OC , I found its viability recorded as 92.1%

# viability (compound: O=S(=O)(NCCSc1ccccc1)c1cccs1 ) is 86.4%

Entry under test: CCOC(OCC)P(=O)(C(C)C)C(C)C . Its viability was 91.8%

Notebook: Cc1ccc(NC(=O)CSc2nnc(CNC(=O)c3c(F)cccc3Cl)o2)cc1 , viability read as 95.7%

====

assay: reversal of MRP1-mediated doxorubicin resistance, pilot screen, H69AR cells, doxorubicin co-treatment (AID 601); settings: H69AR cells + 2 uM doxorubicin, CellTiter-Glo, 72 h; at 10 µM; stronger effect = higher value
Let's look at some compounds and their measured differential viability (reversal).
Give the number; % is assumed, so skip it.

Here are 6 compounds together with their reported answers.
Cc1cc(C(=O)OCC(=O)N2c3ccccc3CC2C)c(C)o1 (stereo not given) ... 9.63
CCOC(=O)C(CC)Sc1nc2c(c(=O)[nH]c(=O)n2C)n1C/C=C(/C)Cl (stereo not given) ... 20.7
COc1ccc(Cn2nnnc2C(c2cc3cc(C)cc(C)c3[nH]c2=O)N2CCOCC2)cc1 (stereo not given) ... 11.9
CCOC(=O)c1[nH]c(=O)c2ccccc2c1O ... -0.03
Cc1nc(SCCC(=O)O)c2ccccc2n1 ... 1.88
CCCCCn1c(CN2CCN(C(=O)OCC)CC2)nc2c1c(=O)[nH]c(=O)n2C ... 15.8

differential viability (reversal) in this record for COc1cc(C2C(C#N)=C(N)OC3=C2C(=O)CCC3)ccc1OC(=O)N1CCOCC1 (stereo not given) : 3.67

Lab book: differential viability (reversal) of Nc1c(C2=NCCO2)nnn1Cc1ccccc1 noted as 0.315

differential viability (reversal) for COC(=O)CCN1CCC(C(N)=O)CC1 is 15

Entry CC(C)Oc1ccc(-c2nn(-c3ccccc3)cc2/C=c2\sc3ncnn3c2=O)cc1 ; differential viability (reversal) = 8.19
